Biological target: T1, CAPRIN-1 protein expressed on the membrane surface of human cancer cells (human, UniProt Q14444 2-709)
T1 sequence (looked up): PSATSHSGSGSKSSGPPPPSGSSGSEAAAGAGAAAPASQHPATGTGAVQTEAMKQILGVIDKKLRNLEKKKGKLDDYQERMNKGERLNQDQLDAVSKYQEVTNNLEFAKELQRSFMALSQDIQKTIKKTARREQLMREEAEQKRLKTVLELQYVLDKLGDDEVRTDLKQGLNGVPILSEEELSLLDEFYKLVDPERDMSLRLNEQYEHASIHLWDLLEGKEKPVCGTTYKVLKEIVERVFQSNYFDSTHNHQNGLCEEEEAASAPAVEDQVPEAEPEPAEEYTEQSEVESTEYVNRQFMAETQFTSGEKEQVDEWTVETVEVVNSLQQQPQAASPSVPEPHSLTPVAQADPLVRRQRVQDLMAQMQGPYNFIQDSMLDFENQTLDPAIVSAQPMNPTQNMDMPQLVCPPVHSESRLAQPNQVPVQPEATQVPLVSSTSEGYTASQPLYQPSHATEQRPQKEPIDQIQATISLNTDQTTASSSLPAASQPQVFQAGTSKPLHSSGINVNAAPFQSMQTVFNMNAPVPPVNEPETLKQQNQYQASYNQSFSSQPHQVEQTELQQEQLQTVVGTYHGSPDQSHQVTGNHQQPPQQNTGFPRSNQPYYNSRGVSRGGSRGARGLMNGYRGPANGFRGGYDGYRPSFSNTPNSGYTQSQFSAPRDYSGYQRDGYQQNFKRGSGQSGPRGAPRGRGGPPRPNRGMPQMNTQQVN
Assay: cell-based or functional assay
The following binders are listed with their measured ADCC cytotoxic activity (51Cr release) on MDA-MB-361 values.
metric.name: ADCC cytotoxic activity (51Cr release) on MDA-MB-361

>>> readout_value("humanized antibody #7 (antibody, V domains shown) VH: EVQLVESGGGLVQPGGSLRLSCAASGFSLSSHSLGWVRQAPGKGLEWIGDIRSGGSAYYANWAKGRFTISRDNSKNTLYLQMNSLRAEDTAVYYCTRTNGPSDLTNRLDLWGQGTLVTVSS VL: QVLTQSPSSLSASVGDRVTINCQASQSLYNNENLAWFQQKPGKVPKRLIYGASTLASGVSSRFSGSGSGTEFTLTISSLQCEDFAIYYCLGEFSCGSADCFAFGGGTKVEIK")
"≥ 52%"
>>> readout_value("humanized antibody #9 (antibody, V domains shown) VH: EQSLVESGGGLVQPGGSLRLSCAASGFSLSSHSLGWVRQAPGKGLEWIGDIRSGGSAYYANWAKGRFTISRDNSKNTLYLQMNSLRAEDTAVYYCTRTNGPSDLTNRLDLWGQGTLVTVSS VL: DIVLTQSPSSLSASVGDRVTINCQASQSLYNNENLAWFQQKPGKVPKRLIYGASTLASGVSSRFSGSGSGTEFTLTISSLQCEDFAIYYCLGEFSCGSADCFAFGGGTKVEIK")
"≥ 40%"
>>> readout_value("humanized antibody #4 (antibody, V domains shown) VH: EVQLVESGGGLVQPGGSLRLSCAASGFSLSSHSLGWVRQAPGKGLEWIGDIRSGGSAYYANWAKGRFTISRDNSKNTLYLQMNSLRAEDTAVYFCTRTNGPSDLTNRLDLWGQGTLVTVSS VL: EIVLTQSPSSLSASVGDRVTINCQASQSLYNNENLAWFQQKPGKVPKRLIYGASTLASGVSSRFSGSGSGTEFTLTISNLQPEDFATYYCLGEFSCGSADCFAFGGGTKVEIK")
"≥ 45%"
>>> readout_value("humanized antibody #1 (antibody, V domains shown) VH: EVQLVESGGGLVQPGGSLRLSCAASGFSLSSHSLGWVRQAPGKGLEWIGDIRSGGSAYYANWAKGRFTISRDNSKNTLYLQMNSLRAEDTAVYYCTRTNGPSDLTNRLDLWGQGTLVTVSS VL: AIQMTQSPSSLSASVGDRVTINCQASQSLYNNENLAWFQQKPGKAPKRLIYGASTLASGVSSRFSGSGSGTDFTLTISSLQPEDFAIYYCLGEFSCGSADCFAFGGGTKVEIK")
"≥ 40%"
